# study-system: CFTR-mediated chloride transport in human intestinal epithelial enteroid cells (Homo sapiens)
# Sequence (P13569 with tags, fused parts or gaps DEL508-508): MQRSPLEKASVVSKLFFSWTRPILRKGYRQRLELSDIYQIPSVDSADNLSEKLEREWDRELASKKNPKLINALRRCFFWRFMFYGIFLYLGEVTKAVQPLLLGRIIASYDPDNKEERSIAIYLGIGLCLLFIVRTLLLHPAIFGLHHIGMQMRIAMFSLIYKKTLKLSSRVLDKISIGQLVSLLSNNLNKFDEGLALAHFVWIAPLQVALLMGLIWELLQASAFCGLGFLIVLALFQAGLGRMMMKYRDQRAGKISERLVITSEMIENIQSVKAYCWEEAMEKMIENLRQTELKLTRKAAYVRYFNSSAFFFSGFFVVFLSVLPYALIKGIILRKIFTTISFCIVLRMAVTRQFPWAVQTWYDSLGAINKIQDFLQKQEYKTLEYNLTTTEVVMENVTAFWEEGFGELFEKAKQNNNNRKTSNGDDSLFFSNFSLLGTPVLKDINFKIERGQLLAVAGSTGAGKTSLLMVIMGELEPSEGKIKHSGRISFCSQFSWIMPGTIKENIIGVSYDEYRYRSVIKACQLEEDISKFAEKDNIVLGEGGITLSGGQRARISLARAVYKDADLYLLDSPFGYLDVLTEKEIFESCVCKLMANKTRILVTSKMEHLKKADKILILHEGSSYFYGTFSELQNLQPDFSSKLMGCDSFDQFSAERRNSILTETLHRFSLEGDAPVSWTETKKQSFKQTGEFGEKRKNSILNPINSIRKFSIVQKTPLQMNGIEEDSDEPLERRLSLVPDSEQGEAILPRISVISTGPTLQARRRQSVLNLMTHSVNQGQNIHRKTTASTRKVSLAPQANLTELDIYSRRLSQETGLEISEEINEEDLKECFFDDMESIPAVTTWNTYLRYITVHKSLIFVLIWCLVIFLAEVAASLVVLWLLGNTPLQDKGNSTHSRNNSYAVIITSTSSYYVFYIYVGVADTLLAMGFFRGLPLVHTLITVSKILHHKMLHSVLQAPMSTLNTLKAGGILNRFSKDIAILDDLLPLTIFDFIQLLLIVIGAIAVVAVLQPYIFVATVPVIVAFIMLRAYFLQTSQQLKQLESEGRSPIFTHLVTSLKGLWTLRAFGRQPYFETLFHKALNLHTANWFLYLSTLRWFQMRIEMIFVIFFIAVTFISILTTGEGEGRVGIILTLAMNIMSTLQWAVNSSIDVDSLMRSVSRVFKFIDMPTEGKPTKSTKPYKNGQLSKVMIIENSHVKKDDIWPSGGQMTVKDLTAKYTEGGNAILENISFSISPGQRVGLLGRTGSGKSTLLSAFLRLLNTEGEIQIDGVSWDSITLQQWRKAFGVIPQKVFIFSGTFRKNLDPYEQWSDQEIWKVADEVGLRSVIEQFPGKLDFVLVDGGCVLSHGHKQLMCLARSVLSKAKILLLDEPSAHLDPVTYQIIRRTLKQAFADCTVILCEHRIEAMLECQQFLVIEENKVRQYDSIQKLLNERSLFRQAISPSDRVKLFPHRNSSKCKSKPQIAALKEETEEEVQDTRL
# assay-details: Membrane potential dye, Enteroid Assay A
# Assay type: cell-based
# run-conditions: Enteroid Assay A
measured-endpoint: Ent. A Max Activity (%)

Before answering, review these 10 worked examples.
molecule	Ent. A Max Activity (%)
Cc1cccc(C)c1-c1cc2nc(n1)NS(=O)(=O)c1cccc(c1)C(=O)N1C[C@@H](CN(CC(F)(F)F)CC1CC(C)C)O2 (stereo in doubt) [Compound 105]	+ (+ is <30%)
Cc1cccc(C)c1-c1cc2nc(n1)NS(=O)(=O)c1cccc(c1)C(=O)N1C[C@@H](CN(CC(C)(C)C)C[C@@H]1CC(C)C)O2 [Compound 151]	++ (++ is 30-60%)
Cc1cccc(C)c1-c1cc2nc(n1)NS(=O)(=O)c1cccc(c1)C(=O)N1CCNCC(O2)C1CC(C)C (single isomer, unassigned) [Compound 91]	+++ (+++ is >600%)
Cc1cccc(C)c1-c1cc2nc(n1)NS(=N)(=O)c1cccc(c1)C(=O)N1CCN(CCC(C)(C)C)CC(C1)O2 (stereo not drawn) [Compound 247]	+ (+ is <30%)
Cc1cccc(C)c1-c1cc2nc(n1)NS(=O)(=O)c1cccc(c1)C(=O)N1CCN(C3CCC(F)(F)CC3)CC(C1)O2 (stereo not drawn) [Compound 46]	+++ (+++ is >600%)
Cc1cccc(C)c1-c1cc2nc(n1)NS(=O)(=O)c1cccc(c1)C(=O)N1CC(CN(Cc3ccccc3)[C@@H](CC(C)C)C1)O2 (stereo partly drawn) [Compound 107]	+++ (+++ is >600%)
Cc1cccc(C)c1-c1cc2nc(n1)NS(=O)(=O)c1cccc(c1)C(=O)N1CCN(C(C)C)CC1C(Cc1ccccc1)O2 (stereo not drawn) [Compound 174]	+++ (+++ is >600%)
Cc1cccc(C)c1-c1cc2nc(n1)NS(=O)(=O)c1cccc(c1)C(=O)N1CCN(C(=O)OC(C)(C)C)[C@@H](CC(C)C)[C@H](C1)O2 [Compound 117]	+++ (+++ is >600%)
CCOC(=O)C1CC1CN1CCN2C[C@@H](C1)Oc1cc(-c3c(C)cccc3C)nc(n1)NS(=O)(=O)c1cccc(c1)C2=O (stereo partly drawn) [Compound 34]	+++ (+++ is >600%)
Cc1cccc(C)c1-c1cc2nc(n1)NS(=O)(=O)c1cccc(c1)C(=O)N1CCN(CC3C4(CC4)C34CC4)C[C@H](C1)O2 [Compound 17]	+++ (+++ is >600%)

Inquiry: // returns reported Ent. A Max Activity (%) for input Cc1cccc(C)c1-c1cc2nc(n1)NS(=O)(=O)c1cccc(c1)C(=O)N1C[C@@H](CNC[C@@H]1CC(C)C)O2 [Compound 95]
Reply text: ++ (++ is 30-60%)

Inquiry: Field entry: Cc1cccc(C)c1-c1cc2nc(n1)NS(=O)(=O)c1cccc(c1)C(=O)N1C[C@@H](CN(C(C)C)C[C@H]1CC(C)C)O2 [Compound 139]
Reply text: +++ (+++ is >600%)

====

# study-system: CFTR-mediated chloride transport in human intestinal epithelial enteroid cells (Homo sapiens)
# assay-details: Membrane potential dye, Enteroid Assay A
# Format: cell-based
# run-conditions: percentage of chloride transport of triple combination control (3 μM N-[(6-amino-2-pyridyl)sulfonyl]-6-(3-fluoro-5-isobutoxy-phenyl)-2-[(4S)-2,2,4-trimethylpyrrolidin-1-yl]pyridine-3-carboxamide based)
measured-endpoint: Ent. A Max Activity (%)

> print(dat)
                                 smiles.str  reported.measurement
1  Cc1cccc(C)c1-c1cc2nc(n1)NS(=O)(=O)c1cccc(c1)C(=O)N1CCNC[C@H](C1)O2     +++ (+++ is >60%)
2  Cc1cccc(C)c1-c1cc2nc(n1)NS(=O)(=O)c1cccc(c1)C(=O)N1CCN(CCC(C)(C)C)C[C@@H]1CO2     +++ (+++ is >60%)
